assay: UKN5_HCS_SBAD2_cell_viability: Viability Assessment in the University of Konstanz (UKN) Leist Lab Neurite Outgrowth Assay in human iPSC-derived immature Dorsal Root Ganglia Neurons (UKN5) (AID 2284056)
Active and inactive are the calls of the source. Rule for the calls: active = hit-call score of the fitted dose curve at least 0.9, where 1 is the maximum; inactive = score below 0.9.
Bench note: report the call from active, inactive

Observe how each entry below is paired with its result.
INSERT INTO measurements (molecule, group_label) VALUES
  ('CC1(C)[C@H](C(=O)O[C@H](C#N)c2cccc(Oc3ccccc3)c2)[C@@H]1C=C(Br)Br', 'active'),
  ('C[n+]1ccc(-c2ccccc2)cc1', 'inactive'),
  ('[Cd+2].[Cl-].[Cl-]', 'active');

Next item in the queue.
Hey, what did the test say about CC1(C)C(C=C(Cl)Cl)[C@H]1C(=O)O[C@H](C#N)c1cccc(Oc2ccccc2)c1 (some centres undefined) ? inactive
